Provenance of the data: patent US20110003689A1

# Test system: Blumeria graminis f. sp. hordei
# PROTOCOL_SUMMARY: Blumeria graminis test (barley)/curative (Example P)
# Assay type: in vivo
# MEASUREMENT_SETUP: 168 h, 250 ppm, read-out: Efficacy in % found
Measured pest or weed control at 250 ppm accompanies every entry in the list below.
Mention the unit after the number when you answer.

Recorded pest or weed control at 250 ppm, per entry:
1) CC(C)CC(C)c1sccc1NC(=O)c1cn(C)nc1C(F)(F)F (stereo not shown) | 88%
2) CC1COC(Cn2cncn2)(c2ccc(Oc3ccc(Cl)cc3)cc2Cl)O1 (stereo not shown) | 78%
3) CCCCCCCCCCCCCN1CC(C)OC(C)C1 (stereo not shown) | 75%

Turning now to a further compound:
Q. What measured pest or weed control at 250 ppm goes with Cc1nn(C)c(F)c1C(=O)Nc1ccccc1C(C)CC(C)C (stereo not shown) ?
A. 67%
